The measured values listed here are drawn from patent US20240262910A1.

Molecular target: T1, human CD33 extracellular domain with 6xHis-tag (human, UniProt P20138 18-259)
T1 construct: Bought (R&D Systems, Acro Biosystems); also called huCD33-His; huCD33(ECD)-His
T1 sequence (P20138 other isoform, or with tags, fused parts or gaps): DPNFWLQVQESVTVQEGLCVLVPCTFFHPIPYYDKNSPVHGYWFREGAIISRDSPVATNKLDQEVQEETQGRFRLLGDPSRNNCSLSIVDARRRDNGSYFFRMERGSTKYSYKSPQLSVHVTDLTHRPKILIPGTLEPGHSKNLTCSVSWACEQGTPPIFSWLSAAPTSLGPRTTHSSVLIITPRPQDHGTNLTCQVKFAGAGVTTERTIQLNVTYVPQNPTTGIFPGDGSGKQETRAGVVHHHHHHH
Experiment: ELISA, hybridoma supernatant
Examples of binders with documented RLU follow.
Number plus unit, in that order.

Check out these entries, answers already filled in.
1-H19 (antibody, V domains shown, AlivaMab mouse hybridoma antibody; also called 1-H19-A) VH: QVQLQESGPGLVKPSETLSLTCTVSGGSISTYYWSWIRQPAGKGLEWIGRIYTSGNTNYNPSLKSRVTMSVDTSKNQLSLKLRSVTAADTAVYYCARDGDNRNSDAFDIWGQGTMVTVSS VL: QSVLTQPPSVSGAPGQRVTISCTGSSSNIGAGYDVHWYQQLPGTAPKLLIYGNSNRPSGVPDRFSGSKSGTSASLAITGLQAEDEADYYCQSYDRSLSGWVFGGGTKLTVL	132000 RLU
1-A20 (antibody, V domains shown, AlivaMab mouse hybridoma antibody; also called 1-A20-A) VH: QVQLQESGPGLVKPSETLSLTCTVSGDSISSYYWSWIRQPAGKGLEWIGRIYTSGNTNYNPSLKSRVTMSVDKSKNQFSLKLRSVTAADTAVYYCARDGDNRDSDAFDIWGQGTMVTVSS VL: SPGTLSLSPGERATLSCRASQNISSSYLAWCQQKPGQAPRLFIYGTSRRATGIPDRFSGSGSGTDFTLTISRLEPEDFAVYYCQQYGSSPLTFGGGTKVEIK	117000 RLU
4-B2 (hybridoma antibody) (antibody, V domains shown, AlivaMab mouse hybridoma antibody; also called 4-B2-A) VH: EVHLLESGGGLVQPGGSLRLSCAASGFIFSSNAMSWVRQAPGKGLEWVSAISGYGGNTYYADSVKGRFTISRDNSKNTLYLQMNSLRAEDTAVYYCAKWGTYIVGATGDYWGQGTLVTVSS VL: QSALTQPPSASGSPGQSVTISCTGTSNDVGGYNYVSWYQQHPGKAPKLLIYEVSKRPSGVPDRFSGSQSGNTASLTVSGLQAEDEADYYCSSYAGSNNWVFGGGTKLTVL	392000 RLU
3-P14 (hybridoma antibody) (antibody, V domains shown, AlivaMab mouse hybridoma antibody; also called 3-P14-A) VH: EVQLLESGGGLVQPGGSLRLSCAASGFTFSTYAMSWVRQAPGKGLEWVSAISGRGGSTYYTDSVKGRFTISRDNSKNTVSLQMNSLRAEDTAVYYCAGRGDYYYYYGMDVWGQGTTVTVSA VL: DIVMTQSPLSSPVTLGQPASFSCRSSQSLVYSDGNTYLSWLQQRPGQPPRLLIYKISNRFSGVPDRFSGSGAGTDFTLKISRVEAEDVGVYYCMQSTQFPHTFGQGTKLEIK	546000 RLU
2-N3 (antibody, V domains shown, AlivaMab mouse hybridoma antibody; also called 2-N3-A) VH: EVQLVQSGADVKKPGESLKISCKGSGFSFTSHWIAWVRQMPGKGLEWMGIIYPGDSDTRYSPSLQGRVTISADKSISTAYLQWSSLKASDTAMYFCARHETGNGYSYGMDVWGQGTTVTVSS VL: DIVMTQSPLSLPVTPGEPASISCRSSQSLLHSNGYNYLDWYLQKPGQSPQLLFSLGSNRASGVPDRFSGSGSGTDFSLKISRVEAEDVGLYYCMQALQPPLTFGGGTKVEIK	724000 RLU
1-P23 (antibody, V domains shown, AlivaMab mouse hybridoma antibody; also called 1-P23-A) VH: QVQLVESGGGVVQPGRSLRLSCAASGFTFNSYGMHWVRQAPGKGLEWVAIISYDGSNKYYADSVKGRFTISRDNSKNTLYLQMNSLRAEDTAVYYCARDNYDSSGYNWYFDLWGRGTLVTVSS VL: SSELTQDPAVSVALGQTVRITCQGDSLRSYYASWYQQKPGQAPVLVIYGKNNRPSGIPDRFSGSSSGNTASLTITGAQAEDEADYYCNSRDSSGNLWVFGGGTKLTVL	41800 RLU
4-P3 (antibody, V domains shown, AlivaMab mouse hybridoma antibody; also called 4-P3-A) VH: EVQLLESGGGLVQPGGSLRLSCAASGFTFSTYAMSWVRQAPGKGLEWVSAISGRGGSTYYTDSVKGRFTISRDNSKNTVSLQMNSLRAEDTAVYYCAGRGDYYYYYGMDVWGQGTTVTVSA VL: DIVMTQSPLSSPVTLGQPASISCRSSQSLVYSDGNTYLSWLQQRPGQPPRLLIYKISNRFSGVPDRFSGSGAGTDFTLKISRVEAEDVGVYYCMQSTQFPHTFGQGTKLEIK	484000 RLU

Please find the next binder below.
Input line: GET /values?readout=RLU&item= 1-J19 (hybridoma antibody) (antibody, V domains shown, AlivaMab mouse hybridoma antibody; also called 1-J19-A) VH: QVQLQQSGPGLVKPSQTLSLTCAISGDSVSSNSAAWNWIRQSPSRGLEWLGRTYFRSKWYNVYAVSVKSRITINPDTSKNQFSLQLNSVTPEDTAVYYCASEGGSYYDHWGQGTLVTVSS VL: DIQMTQSPSSVSASVGDRVTITCRASQGISNWLTWYQQKPGKAPKLLIYAASSLQSGVPSRFSGSGSGTDFTLTISSLQPEDFATYYCQQADSFPFTFGPGTKVDIK
Output line: 95600 RLU
